Biological target: T1, SNAP-Fbs1 fusion protein (wild-type human Fbs1 sugar-binding domain, residues 92-296) (human, UniProt Q9UK22 92-296)
T1 construct: Immobilised covalently through the SNAP tag on benzylguanine (BG) agarose beads in the bead assays; also called wt Fbs1; Fbs1 beads; source: NEB Express E. coli, purified (for Fbs1 beads and ITC); E. coli cell lysate (fetuin or RNase B bead pulldown); not shown: SNAP tag, N-terminal, kept
T1 sequence (looked up): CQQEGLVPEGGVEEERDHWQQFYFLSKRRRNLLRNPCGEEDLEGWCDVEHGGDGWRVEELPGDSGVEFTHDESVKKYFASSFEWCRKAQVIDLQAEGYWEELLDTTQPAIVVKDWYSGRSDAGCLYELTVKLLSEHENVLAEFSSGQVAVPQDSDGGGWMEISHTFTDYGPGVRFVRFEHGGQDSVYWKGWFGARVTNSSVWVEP
Test: ITC; 270 μM SGP injected into 27 μM SNAP-Fbs1; 20 mM Tris.HCl pH 7.5, 1 mM EDTA, 2 M NaCl (high salt); single site binding model
Settings: both partners purified
pKd: −log10 of the molar value. No end group written: not given here.

>  <binder>
KVAN(bi‑antennary complex N‑glycan, terminal sialic acids)KT (naturally occurring glycopeptide of six amino acids; source: bought: Fushimi Pharmaceutical Co., Ltd) [sialylglycopeptide (SGP)]

>  <pKd>
5.85

$$$$
